System: ACHN renal
Test: NCI-60 one-dose screen, 48 h
Details: 10 µM
Protocol: Growth inhibition of the ACHN human tumor cell line is measured as a screen for anti-cancer activity. Cells are grown in 96 well plates and exposed to the test compound for 48 hours. Compounds are tested at a single concentration, which is 10^-5 M for most compounds. The reported endpoint is percent growth (GI% or GIPRCNT), where numbers from 0 - 100% represent growth inhibition, and numbers from -100% - 0 represent cell death. For example, a value of 40 represents 60% growth inhibition. […]
This is part of a sample that, as a whole, favours compounds with a hit. Of some 83,000 tested, about 20% had one in any assay. Active and inactive are the calls of the source. Rule for the calls: active = growth percent below 10; inactive = the rest.
Labels: 1 for active, 0 for inactive

compound	answer label
CC1=C[C@H]2O[C@@H]3C[C@H]4OC(=O)/C=C\C=C\[C@H]([C@@H](C)O)OCC/C(C)=C/C(=O)OC[C@@]2(CC1)[C@]4(C)[C@]31CO1	1
CC1=C2C(=C[C@@](C)(COC(=O)c3ccc(S(=O)(=O)F)cc3)[C@@H]2OC(=O)c2ccc(S(=O)(=O)F)cc2)C(=O)[C@](C)(O)C12CC2	1
C[C@@H]1C[C@H]2C(=O)O[C@@H](C)C(NC(=O)[C@H](Cc3cc(F)cc(F)c3)NC(=O)Nc3ccc(OS(=O)(=O)F)cc3)C(=O)N3CCC[C@H]3C(=O)N3CCO[C@H](C)[C@H]3C(=O)N[C@@H](CO)C(=O)N2C1 (stereo not given in full)	0
CC(C)(O)/C=C/C(=O)[C@](C)(O)[C@H]1[C@H](O)C[C@@]2(C)[C@H]3CC=C4[C@@H](C[C@H](O)C(=O)C4(C)C)[C@]3(C)C(=O)C[C@]12C	1
N#Cc1nc(-c2ccccc2)oc1N1CCC(S(=O)(=O)F)CC1	0
CC1=C2C(=C[C@@](C)(C=O)[C@@H]2O)C(=O)[C@](C)(O)C12CC2	1
NC1CCc2cc(O)c(O)cc2C1 (stereo not given)	0
CC1=C2C(=C[C@@](C)(COS(C)(=O)=O)[C@@H]2O)C(=O)[C@](C)(O)C12CC2	1
COc1cccc2c1cc([N+](=O)[O-])c1c(C(=O)O)cc3c(c12)OCO3	0
COc1cc2c(cc1OC)[C@@H]1N(CC2)C(=O)c2ccccc2[C@@]1(C)C(=O)O	0
CC(=O)O[C@@H]1C[C@H]2O[C@@H]3C=C(C)CC[C@]3(C)[C@]1(C)[C@]21CO1	0
C/C=C\C(=O)O[C@@H]1CC2O[C@@H]3C=C(C)C(=O)C[C@]3(C)[C@]1(C)[C@]21CO1	1
CC1=C[C@H]2O[C@@H]3C[C@H]4OC(=O)/C=C\C=C\[C@H]([C@@H](C)O)OCC[C@@H](C)[C@H](O)C(=O)OC[C@@]2(CC1)[C@]4(C)[C@]31CO1	1
COc1cc2c(O[C@@H]3OC[C@H](O)[C@H](O)[C@H]3O)c3c(c(-c4ccc5c(c4)OCO5)c2cc1OC)C(=O)OC3	0
COc1cc(OC)c(S(=O)(=O)N(CCCl)CCCl)cc1C(=O)/C=C/c1ccc(Cl)cc1	0

###

Tested on: HOP-92 NSCLC
Assay: NCI-60 one-dose screen, 48 h
Details: 10 µM
The panel holds about 83,000 compounds, 20% with a hit somewhere; the sample as a whole holds those more often. Calls of active or inactive are those of the source. Rule for the calls: active = growth percent below 10; inactive = the rest.
Labels: label 1 = active, label 0 = inactive

molecule	answer label
CC(C)(O)/C=C/C(=O)[C@](C)(O)[C@H]1[C@H](O)C[C@@]2(C)[C@H]3CC=C4[C@@H](C[C@H](O)C(=O)C4(C)C)[C@]3(C)C(=O)C[C@]12C	label 1
Cc1ccc(CNc2nc3ccc(OC/C(=C/F)CN)cc3o2)cn1	label 0
COc1cc2c(cc1OC)[C@@H]1N(CC2)C(=O)c2ccccc2[C@@]1(C)C(=O)O	label 0
CC1=C[C@H]2O[C@@H]3C[C@H]4OC(=O)/C=C\C=C\[C@H]([C@@H](C)O)OCC/C(C)=C/C(=O)OC[C@@]2(CC1)[C@]4(C)[C@]31CO1	label 1
COC1[C@@H]2C[C@H]3C(C)(C)O[C@@](C/C=C(/C)C(=O)O)(C2=O)[C@]32Oc3c(CC=C(C)C)c4c(c(O)c3C(=O)[C@H]12)C=CC(C)(C)O4 (stereo partly specified)	label 1
C/C=C\C(=O)O[C@@H]1CC2O[C@@H]3C=C(C)C(=O)C[C@]3(C)[C@]1(C)[C@]21CO1	label 1
CC(=O)O[C@@H]1C[C@H]2O[C@@H]3C=C(C)CC[C@]3(C)[C@]1(C)[C@]21CO1	label 0
CCC(C)[C@H]1C(=O)O[C@H](C(C)C)C(=O)N(C)[C@@H](C(C)C)C(=O)O[C@H](C(C)C)C(=O)N(C)[C@@H](C(C)C)C(=O)O[C@H](C(C)C)C(=O)N1C (stereo partly specified)	label 1
COc1cc(OC)c(S(=O)(=O)N(CCCl)CCCl)cc1C(=O)/C=C/c1ccc(Cl)cc1	label 0
CC(C)=CCc1c2c(c(O)c3c1O[C@]14C(=C[C@@H]5C[C@H]1C(C)(C)O[C@@]4(C/C=C(/C)C(=O)O)C5=O)C3=O)C=CC(C)(C)O2	label 1
COc1cc2c(O[C@@H]3OC[C@H](OC(C)=O)[C@H](OC(C)=O)[C@H]3O)c3c(c(-c4ccc5c(c4)OCO5)c2cc1OC)C(=O)OC3	label 1
C[C@@H]1CCC/C=C/[C@H]2C[C@@H](O)C[C@@H]2[C@@H](O)/C=C/C(=O)O1	label 1
CN(CCF)/N=N/c1nc[nH]c1C(N)=O	label 0
CC1=C(CN(O)C(N)=O)C2=C(C)C3(CC3)[C@@](C)(O)C(=O)C2=C1	label 1
O=C(CCCc1ccc(N(CCCl)CCCl)cc1)OCc1ccccc1	label 0
N#Cc1c(-n2c(Br)c(Br)c3cc(Br)ccc32)[nH]c2c(Br)cc(Br)cc12	label 1
